target: Fuc(a1-2)[GalNAc(a1-3)]Gal(b1-4)[Fuc(a1-3)]GlcNAc(b1-3)GalNAc; assay: glycan array binding signal (z-score within array); higher = stronger binding; details: glycan notation: IUPAC condensed, linker removed
The full list was thinned out, with the strongest signals kept by preference.
property name: glycan array binding signal (z-score)
A bare number is all that is needed in reply.

Consider the following illustrative entries.
| binder | result value |
| --- | --- |
| CFEM-PPm (Pichia pastoris), F2QPV1 (protein) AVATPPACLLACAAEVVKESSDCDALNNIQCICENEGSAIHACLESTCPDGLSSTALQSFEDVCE | 3.4 |
| pilr alpha (protein) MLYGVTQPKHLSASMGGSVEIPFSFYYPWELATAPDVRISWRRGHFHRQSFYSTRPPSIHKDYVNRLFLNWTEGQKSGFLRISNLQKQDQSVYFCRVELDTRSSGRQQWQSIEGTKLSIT | 6.68 |

Consider the record given below.
Query: Which glycan array binding signal (z-score) is listed for Gal 9 (Canis lupus) (protein) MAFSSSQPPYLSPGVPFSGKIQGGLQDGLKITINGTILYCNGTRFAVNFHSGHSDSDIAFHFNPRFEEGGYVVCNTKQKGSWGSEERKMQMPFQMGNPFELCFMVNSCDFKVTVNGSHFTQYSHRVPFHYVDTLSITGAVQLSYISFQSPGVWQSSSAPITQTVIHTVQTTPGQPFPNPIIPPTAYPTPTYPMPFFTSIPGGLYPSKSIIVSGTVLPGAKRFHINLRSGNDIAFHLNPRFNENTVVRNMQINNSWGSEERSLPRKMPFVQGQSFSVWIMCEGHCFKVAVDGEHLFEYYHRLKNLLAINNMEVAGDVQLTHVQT ?
Reply: -0.288
